The reader will find reported TGI values listed item by item below.
Tested on: SNB-19 CNS
Assay: NCI tumour cell line growth inhibition, 48 h
MEASURED QUANTITY: TGI

[[record]]
compound = "Cc1ccc(S(=O)(=O)OC2CSS(=O)CC2OS(=O)(=O)c2ccc(C)cc2)cc1 (stereo not drawn)"
observed = "32 µM"

[[record]]
compound = "CCOc1ccc2c(c1)[n+]([O-])c(-c1ccc(Cl)cc1)c(N)[n+]2[O-]"
observed = "> 100 µM"

[[record]]
compound = "CC(C)(C)OC(=O)N1CCN(CCn2cc(C(F)(F)F)c3c(Cl)ncnc32)CC1"
observed = "3.72 µM"

[[record]]
compound = "CNc1ncnc2c1ncn2C1C=CC(COS(N)(=O)=O)C1 (stereo not drawn)"
observed = "> 100 µM"

[[record]]
compound = "CSc1nc(C#N)c(/N=C\\N(C)C)n1C"
observed = "> 100 µM"

[[record]]
compound = "C=CCNC1=C2C[C@@H](C)C[C@@H](OC)[C@H](OC(=O)CCN)[C@H](C)/C=C(\\C)[C@@H](OC(N)=O)[C@H](OC)/C=C\\C=C(/C)C(=O)NC(=CC1=O)C2=O"
observed = "20.9 µM"

[[record]]
compound = "COc1cc2c(cc1C)NC(=O)/C2=C/c1ccccn1"
observed = "> 100 µM"

[[record]]
compound = "C=CCN1C(=O)/C(=C/c2ccco2)N=C1SC/C=C/C"
observed = "> 100 µM"

[[record]]
compound = "CCOC(=O)/C(C#N)=C\\c1ccc(N(CCC(=O)O)CCC(=O)O)c(I)c1"
observed = "> 10 µM"

[[record]]
compound = "COC(=O)/C(C)=C(/CCC1(C)OCCO1)O[Si](C)(C)C"
observed = "> 100 µM"

[[record]]
compound = "Cc1cc(=O)n(-c2ccccc2C)c(C)n1"
observed = "> 100 µM"

[[record]]
compound = "CCS(CC)(CC)CC1CCCC2=CCC(P(=O)(c3ccccc3)c3ccccc3)CC21 (stereo not drawn)"
observed = "29 µM"

[[record]]
compound = "C=C1C(=O)O[C@H]2[C@H]1CC/C(COC(=O)NCc1ccc(Cn3c(=O)sn(CCCl)c3=O)cc1)=C\\CC[C@@]1(C)O[C@@H]21"
observed = "26.1 µM"

[[record]]
compound = "O=C1c2cc(Cl)ccc2-n2cnnc2C2CSCN12 (stereo not drawn)"
observed = "> 100 µM"

[[record]]
compound = "COc1ccc2c(c1)c(=O)oc1cc(OC/C(C)=N\\O)ccc12"
observed = "> 100 µM"

[[record]]
compound = "CCC(C)(CC(C)(C)C(=O)NCC(=O)NC(Cc1ccccc1)C(=O)NC(Cc1ccccc1)C(=O)NCC(=O)NC1CC(OC2CC(O)(C(=O)CO)Cc3c(O)c4c(c(O)c32)C(=O)c2c(OC)cccc2C4=O)OC(C)C1O)C(=O)NCC(C)O (stereo not drawn)"
observed = "> 150 µg/mL"

[[record]]
compound = "COc1cc2ccc(/C=C\\[N+](=O)[O-])cc2cc1OC"
observed = "27.7 µM"

[[record]]
compound = "O=C(O)c1cc([N+](=O)[O-])cc2c(=O)c3cnccc3[nH]c12"
observed = "> 100 µM"

[[record]]
compound = "Cn1c(=O)c(Br)c(C=O)n(CCO[N+](=O)[O-])c1=O"
observed = "68.4 µM"

[[record]]
compound = "CCOC(=O)N1CCN(C=S)CC1"
observed = "> 100 µM"

[[record]]
compound = "CC(=O)OCC1=C(CCC#N)N2C(=O)C(NC(=O)Cc3cccs3)C2S(=O)C1 (stereo not drawn)"
observed = "> 100 µM"

[[record]]
compound = "CC(C)C1CC[C@@H](C)C[C@@]1(O)CC(N)=O (stereo partly drawn)"
observed = "> 100 µM"

[[record]]
compound = "O=C1NC2ON=C(c3ccccc3)C2C2ON=C(c3ccccc3)N12 (stereo not drawn)"
observed = "> 100 µM"

[[record]]
compound = "NC(=O)N/N=C(\\CC1OC(=O)c2ccccc21)c1ccco1 (stereo not drawn)"
observed = "> 100 µM"

[[record]]
compound = "C=CCN1C(=O)C=C(c2ccccc2)n2ncc3cccc1c32"
observed = "> 100 µM"

[[record]]
compound = "Cc1nc2ccccc2n1COC(Cn1ccnc1)c1ccc(Cl)cc1Cl (stereo not drawn)"
observed = "> 100 µM"

[[record]]
compound = "O=C(O)c1nc2cc(C(F)(F)F)ccc2nc1Nc1ccc(F)cc1"
observed = "> 100 µM"

[[record]]
compound = "Nc1ncnc2c1ncn2C=C=CCO"
observed = "> 100 µM"


----------
Tested on: HCT-116 colon
Test: NCI tumour cell line growth inhibition, 48 h
MEASURED QUANTITY: TGI

[[record]]
compound = "C=CCN1C(=O)/C(=C/c2ccco2)N=C1SC/C=C/C"
observed = "> 100 µM"

[[record]]
compound = "Cn1c2ccccc2n2c(N=O)c(-c3ccccc3)nc12"
observed = "> 100 µM"

[[record]]
compound = "CCc1c2c([nH]c(=S)c1C#N)CCC2"
observed = "> 100 µM"

[[record]]
compound = "O=c1[nH]c2cc([N+](=O)[O-])ccc2nc1/C(=N/Nc1ccccc1)C(O)c1ccccc1Cl (configuration not stated)"
observed = "> 100 µM"

[[record]]
compound = "COC(=O)C1(C)CCC(c2ccc(C)cc2)=C(CC(=O)O)C1 (configuration not stated)"
observed = "> 100 µM"

[[record]]
compound = "CCOC(=O)/C(C#N)=C\\c1ccc(N(CCC(=O)O)CCC(=O)O)c(I)c1"
observed = "> 10 µM"

[[record]]
compound = "C/C(CC(=O)Nc1ccc([N+](=O)[O-])cc1)=N\\NC(N)=O"
observed = "> 100 µM"

[[record]]
compound = "C/C(=N\\NS(=O)(=O)c1ccc(C)cc1)C(CN1CCCCC1)C(c1ccccc1)c1c(O)c2ccccc2oc1=O (configuration not stated)"
observed = "> 100 µM"

[[record]]
compound = "Cc1nn2c(/C=C3\\C(=O)Nc4ccc(Cl)cc43)c(C)nc2s1"
observed = "> 100 µM"

[[record]]
compound = "CC(C)=CCC/C(C)=C/CC/C(C)=C/CC/C(C)=C/C=C/C=C(\\C)CC/C=C(\\C)CC/C=C(\\C)CCC=C(C)C"
observed = "> 100 µM"

[[record]]
compound = "C=CCNC(=O)NC(=O)CSC1=NNC2(C(=O)N1)c1ccccc1-c1ccccc12"
observed = "> 10 µM"

[[record]]
compound = "CN1C(=Nc2ccccc2)SC1=Nc1ccccc1"
observed = "> 100 µM"

[[record]]
compound = "CC(C)Cn1cnc2c(NCC(C)O)nc3ccccc3c21 (configuration not stated)"
observed = "> 100 µM"

[[record]]
compound = "CC(=O)CC(=O)OC1CC(C)CCC1C(C)C (configuration not stated)"
observed = "80.1 µM"

[[record]]
compound = "COC(=O)/C(C)=C(/CCC1(C)OCCO1)O[Si](C)(C)C"
observed = "> 100 µM"

[[record]]
compound = "CC(C)(C)c1ccc(Oc2nccc(-c3c(-c4ccc(F)cc4)ncn3C3CCNCC3)n2)cc1"
observed = "7.07 µM"

[[record]]
compound = "CC[C@]1(Cc2ccc(OC)c(OC)c2)C=[N+]([O-])O[C@H](OC2CCCC2(c2ccccc2)c2ccccc2)[C@@H]1OC(=O)c1ccccc1 (some centres not stated)"
observed = "> 100 µM"

[[record]]
compound = "O=C(Nc1ccc(Cl)cc1)c1cc2cc(N=Nc3ccccc3Cl)ccc2oc1=O"
observed = "23.3 µM"

[[record]]
compound = "CN[C@@H](C)C(=O)N[C@H](C(=O)N1CCC[C@H]1C(=O)Nc1snnc1-c1ccccc1)C1CCCCC1"
observed = "> 100 µM"

[[record]]
compound = "COc1cc2ccc(/C=C\\[N+](=O)[O-])cc2cc1OC"
observed = "5.16 µM"

[[record]]
compound = "CC(C)N(Cc1ccccc1)c1c(S)ssc1=S"
observed = "26.8 µM"

[[record]]
compound = "CCOP(=O)(OCC)/C(C#N)=C/c1ncc[nH]1"
observed = "> 100 µM"


----------
The reader will find reported TGI values listed item by item below.
Tested on: SK-MEL-5 melanoma
Assay: NCI tumour cell line growth inhibition, 48 h
MEASURED QUANTITY: TGI

[[record]]
molecule = "C(=C\\c1cccs1)/c1cccc(/C=C/c2cccs2)n1"
test_system = "SK-MEL-5 melanoma"
observed = "> 100 µM"

[[record]]
molecule = "CC(=O)OCC1=C(CCC#N)N2C(=O)C(NC(=O)Cc3cccs3)C2S(=O)C1 (stereo not drawn)"
test_system = "SK-MEL-5 melanoma"
observed = "> 100 µM"

[[record]]
molecule = "CCC1C2Cc3ccc(O)cc3C1(CC)CCN2C (stereo not drawn)"
test_system = "SK-MEL-5 melanoma"
observed = "> 100 µM"

